- targetOrTestSystem: T1, recombinant human IL-36R extracellular domain expressed with a C-terminal myc-myc-hexahistidine tag (human, UniProt Q9HB29 20-337)
- T1 construct: also called hIL-36R-MMH; hIL-36R.mmH
- T1 sequence (Q9HB29 other isoform, or with tags, fused parts or gaps limits assumed): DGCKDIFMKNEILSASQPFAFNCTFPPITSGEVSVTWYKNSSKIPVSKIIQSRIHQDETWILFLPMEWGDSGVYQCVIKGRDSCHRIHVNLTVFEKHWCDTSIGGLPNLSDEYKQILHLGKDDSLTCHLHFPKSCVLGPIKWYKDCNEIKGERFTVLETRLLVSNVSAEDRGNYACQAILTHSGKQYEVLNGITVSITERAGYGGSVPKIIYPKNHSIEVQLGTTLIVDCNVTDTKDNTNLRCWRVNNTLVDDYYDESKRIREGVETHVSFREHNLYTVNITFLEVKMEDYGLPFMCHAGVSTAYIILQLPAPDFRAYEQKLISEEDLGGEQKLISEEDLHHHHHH
- experimentalProtocol: SPR (Biacore 4000), mAb captured on anti-human Fc, 25°C
Recorded kon by entry
Give the number; M⁻¹ s⁻¹ is assumed, so skip it.

Some binders with known kon results, for comparison:
# kon lookup, item H4H14709P (antibody, human IgG4 S228P, kappa, V domains shown) VH: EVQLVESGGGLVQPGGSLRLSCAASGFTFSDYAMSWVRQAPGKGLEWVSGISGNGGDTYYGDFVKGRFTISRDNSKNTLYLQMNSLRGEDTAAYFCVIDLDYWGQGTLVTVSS VL: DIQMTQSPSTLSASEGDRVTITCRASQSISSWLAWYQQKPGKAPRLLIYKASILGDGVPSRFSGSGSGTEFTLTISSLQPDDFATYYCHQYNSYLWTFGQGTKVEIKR
72300

Same question, H4H14757P (antibody, human IgG4 S228P, kappa, V domains shown) VH: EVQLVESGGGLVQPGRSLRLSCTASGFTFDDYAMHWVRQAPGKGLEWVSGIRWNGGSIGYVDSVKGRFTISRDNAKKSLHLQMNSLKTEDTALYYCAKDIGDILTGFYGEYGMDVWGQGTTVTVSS VL: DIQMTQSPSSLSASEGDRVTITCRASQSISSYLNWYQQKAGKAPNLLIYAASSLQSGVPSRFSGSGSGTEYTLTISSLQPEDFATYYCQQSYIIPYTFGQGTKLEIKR this time
182000

Now look at this one.
Name the reported kon value associated with the binder H4H14700P2 (antibody, human IgG4 S228P, kappa, V domains shown) VH: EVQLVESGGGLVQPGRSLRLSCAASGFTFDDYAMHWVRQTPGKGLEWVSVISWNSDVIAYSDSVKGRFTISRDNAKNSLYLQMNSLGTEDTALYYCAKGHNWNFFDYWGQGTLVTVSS VL: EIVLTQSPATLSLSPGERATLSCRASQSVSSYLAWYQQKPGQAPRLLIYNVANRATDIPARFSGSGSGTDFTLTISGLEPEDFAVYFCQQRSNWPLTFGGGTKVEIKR
120000
